Each recorded value in this set is attributed to patent US9381142B2.

System: female stress-derived axillary odor
ASSAY REMARKS: Cross-adaptation of female stress-derived axillary odor (odor panel, magnitude estimation of perceived intensity); note: key: best: Best = Superior Cross-Adaptation; good: Good = Adequate Cross-Adaptation; poor: Poor = Ineffective Cross-Adaptation
Format: in vivo, human
ASSAY CONTEXT: female stress-derived odor perceived by men
EXPERIMENTAL ENDPOINT: Magnitude of Reduction of Intensity of Female Stress-Derived Odor (FSDO), Males

COMPOUND	TESTED ON	VALUE REPORTED
COc1ccc(C=O)cc1 [Anisic Aldehyde, 4-methoxybenzaldehyde]	female stress-derived axillary odor	best
CCOC(=O)C=C(C)CC (single isomer, unassigned) [E-isomer of 3-methyl-2-pentenoic acid ethyl ester, 3-methyl-2-pentenoic acid ethyl ester]	female stress-derived axillary odor	poor
CC1=CC(C)C(C=O)CC1 (stereo not shown) [Vertocitral]	female stress-derived axillary odor	best
C=CC(C)CCCC(C)(C)O (stereo not shown) [Dihydromyrcenol, 2,6-dimethyl-7-octen-2-ol]	female stress-derived axillary odor	best
CCCCCCC(C=O)=Cc1ccccc1 [Hexylcinnamic Aldehyde, alpha-hexylcinnamaldehyde]	female stress-derived axillary odor	good
CC(=O)C1(C)CC2=C(CCCC2(C)C)CC1C (stereo not shown) [ISO E SUPER ®]	female stress-derived axillary odor	poor
CCCCCCOC(=O)c1ccccc1O [Hexyl Salicylate, hexyl-2-hydroxybenzoate]	female stress-derived axillary odor	poor
Cc1cccc(CC(C)(C)CO)c1 [MAJANTOL ®, 2,2-dimethyl-3-(methylphenyl)propanol]	female stress-derived axillary odor	good
CC(=O)OC1CCC(C(C)(C)C)CC1 (stereo not shown) [Oryclone Special, 4-tertbutylcyclohexyl acetate]	female stress-derived axillary odor	best
CC(C)=CCCC(C)CCCC(C)C=O (stereo not shown) [FARENAL ®, 2,6,10-trimethyl-9-undecenal]	female stress-derived axillary odor	good

Value sought for every listed compound: Magnitude of Reduction of Intensity of Female Stress-Derived Odor (FSDO), Males.
1. C=CCCC(=O)C1=CCCC(C)(C)C1 [Dynascone 10]
2. CCCCCC(C)=CC(=O)OCC [E-isomer of 3-methyl-2-octenoic acid ethyl ester, 3-methyl-2-octenoic acid ethyl ester]

Result:
1: good; 2: good

Provide each entry's Magnitude of Reduction of Intensity of Female Stress-Derived Odor (FSDO), Males from the list below.
1. CCCCCC(C)=CC(=O)OCC (single isomer, unassigned) [E-, Z-isomers (3:1) of 3-methyl-2-octenoic acid ethyl esters, 3-methyl-2-octenoic acid ethyl esters]
2. CCCCCC1C(=O)CCC1CC(=O)OC (stereo not shown) [HEDIONE ®, methyl dihydro jasmonate]
3. OCCc1ccccc1 [Phenylethyl Alcohol, phenylethyl alcohol]
4. CC(=O)OC1CCCCC1C(C)(C)C (stereo not shown) [Agrumex, 2-tert-butyl cyclohexyl acetate]
5. O=C1CCCCCCCC=CCCCCCCO1 [Ambrettolide, oxacycloheptadec-10-en-2-one]
6. CC(CO)CCCc1ccccc1 (stereo not shown) [Rosaphen ®, 2-methyl-5-phenylpentan-1-ol]
7. CCC(=CCC1CC=C(C)C1(C)C)CO (stereo not shown) [Sandranol ®]

Result:
1. best
2. poor
3. good
4. poor
5. poor
6. good
7. good

* * *

System: female stress-derived axillary odor
ASSAY REMARKS: Cross-adaptation of female stress-derived axillary odor (odor panel, magnitude estimation of perceived intensity); note: key: best: Best = Superior Cross-Adaptation; good: Good = Adequate Cross-Adaptation; poor: Poor = Ineffective Cross-Adaptation
Assay type: in vivo, human
ASSAY CONTEXT: female stress-derived odor perceived by women
EXPERIMENTAL ENDPOINT: Magnitude of Reduction of Intensity of Female Stress-Derived Odor (FSDO), Females

COMPOUND	VALUE REPORTED
CC(=O)OC1CCCCC1C(C)(C)C (stereo not shown) [Agrumex, 2-tert-butyl cyclohexyl acetate]	best
CC(=O)O[C@@H]1C[C@H](C)CC[C@H]1C(C)C [Menthyl Acetate rf, 4-menthyl-3-yl acetate]	good
COC(=O)c1c(C)cc(O)c(C)c1O	good
CCCCCC(C)=CC(=O)OCC [E-isomer of 3-methyl-2-octenoic acid ethyl ester, 3-methyl-2-octenoic acid ethyl ester]	poor
